Quick record of pKi values for Induced myeloid leukemia cell differentiation protein Mcl-1 (Homo sapiens).
Quick note: pKi means taking -log10 of the concentration in moles per liter.

Ask: State, in one line, measured pKi of "Cc1cc(OCCCc2c3n(c4c(-c5c(C)nn(C)c5C)c(Cl)ccc24)CCN(Cc2cccc(C(=O)O)c2)C3=O)cc(C)c1Cl"
Result: 8.02

Ask: Could you please provide reported pKi for Cc1cc(OCCCc2c3n(c4c(-c5c(C)nn(C)c5C)c(Cl)ccc24)C(C)CCNC3=O)cc(C)c1Cl (stereo not drawn) ? Thanks!
Result: 7.37

Ask: Return pKi for the following molecule: "Cc1cc(OCCCc2c3n(c4c(-c5c(C)nn(C)c5C)c(Cl)ccc24)C[C@@H](C)NC3=O)cc(C)c1Cl"
Result: 7.57

Ask: Consider the molecule Cc1cc(OCCCc2c3n(c4c(-c5c(C)nn(C)c5C)c(Cl)ccc24)CCC(C)N(Cc2ccc(C(=O)O)cc2)C3=O)cc(C)c1Cl (stereo not drawn) and give its recorded pKi.
Result: 8.18

Ask: Tell me its pKi given "Cc1cc(OCCCc2c3n(c4c(-c5c(C)nn(C)c5C)c(Cl)ccc24)C[C@H](C)N(Cc2ccc(C(=O)O)cc2)C3=O)cc(C)c1Cl" as the entry.
Result: 8.02

Ask: Give the reported value of pKi for this record: Cc1cc(OCCCc2c3n(c4c(-c5c(C)nn(C)c5C)c(Cl)ccc24)CC(C)CNC3=O)cc(C)c1Cl (stereo not drawn)
Result: 7.38

Ask: Report measured pKi; entry is Cc1cc(OCCCc2c3n(c4c(-c5c(C)nn(C)c5C)c(Cl)ccc24)CCC(C)N(Cc2ccc(C(=O)O)o2)C3=O)cc(C)c1Cl (stereo not drawn)
Result: 8.09

Ask: Please list pKi recorded for the molecule "Cc1cc(OCCCc2c3n(c4c(-c5c(C)nn(C)c5C)c(Cl)ccc24)C[C@@H](C)N(Cc2cccc(C(=O)O)c2)C3=O)cc(C)c1Cl"
Result: 8.68

Ask: State its pKi: "Cc1cc(OCCCc2c3n(c4c(-c5c(C)nn(C)c5C)c(Cl)ccc24)[C@H](C)CN(Cc2ccc(C(=O)O)o2)C3=O)cc(C)c1Cl"
Result: 9.00

Ask: Item "Cc1cc(OCCCc2c3n(c4c(-c5c(C)nn(C)c5C)c(Cl)ccc24)CCN(Cc2ccc(C(=O)O)cc2)C3=O)cc(C)c1Cl" : provide pKi
Result: 8.14

Ask: Give reported pKi value for Cc1cc(OCCCc2c3n(c4c(-c5c(C)nn(C)c5C)c(Cl)ccc24)CC(C)CN(Cc2cccc(C(=O)O)c2)C3=O)cc(C)c1Cl (stereo not drawn)
Result: 7.96

Ask: Supply measured pKi of Cc1cc(OCCCc2c3n(c4c(-c5c(C)nn(C)c5C)c(Cl)ccc24)CC(C)CN(Cc2ccc(C(=O)O)cc2)C3=O)cc(C)c1Cl (stereo not drawn) in your reply.
Result: 8.15

Ask: Annotate the molecule "Cc1cc(OCCCc2c3n(c4c(-c5c(C)nn(C)c5C)c(Cl)ccc24)[C@@H](C)CN(Cc2ccc(C(=O)O)o2)C3=O)cc(C)c1Cl" with its measured pKi.
Result: 7.66

Ask: Please give measured pKi of the following entry: "Cc1cc(OCCCc2c3n(c4c(-c5c(C)nn(C)c5C)c(Cl)ccc24)C[C@@H](C)N(Cc2ccc(C(=O)O)cc2)C3=O)cc(C)c1Cl"
Result: 8.74

Ask: Supply pKi value. Item: "Cc1cc(OCCCc2c3n(c4c(-c5c(C)nn(C)c5C)c(Cl)ccc24)CCCNC3=O)cc(C)c1Cl"
Result: 7.92

Ask: Answer with the recorded pKi of "Cc1cc(OCCCc2c3n(c4c(-c5c(C)nn(C)c5C)c(Cl)ccc24)CCNC3=O)cc(C)c1Cl" only.
Result: 7.46

Ask: Check the records and state pKi for "Cc1cc(OCCCc2c3n(c4c(-c5c(C)nn(C)c5C)c(Cl)ccc24)[C@H](C)CN(Cc2cccc(C(=O)O)c2)C3=O)cc(C)c1Cl"
Result: 8.96

Ask: Determine its reported pKi: Cc1cc(OCCCc2c3n(c4c(-c5c(C)nn(C)c5C)c(Cl)ccc24)CC(C)CN(Cc2ccc(C(=O)O)o2)C3=O)cc(C)c1Cl (stereo not drawn)
Result: 8.12

Source listed as ChEMBL document CHEMBL4385603.
